experiment: Quantitative highthroughput screen to assess conditional lethalithy of P12 Ichikawa cells grown in Human Plasma-Like Medium with dialyzed fetal bovine serum (HPLM+ds) (AID 1963879); details: ATP luminescence, 48 h; viability; series mostly up to 45.8 µM; also: nearly all actives have a fitted effect of over 35% in size
Results filed as inconclusive are left out. Calls of active or inactive are those of the source. Calls follow the shape of the dose curve; as a rule, active = well fitted cell-killing curve with a large enough effect; inconclusive = small, poorly fitted or top-dose-only effect; inactive = flat fitted curve, though single readings scatter.
// classify into active, inactive

Solved entries (count: 3):
[[record]]
smiles_entry = "O=C(NCCCNc1nc(Nc2cccc(NC(=O)N3CCCC3)c2)ncc1I)c1cccs1"
group = "inactive"

[[record]]
smiles_entry = "CO[C@@H]1[C@@H](OC(N)=O)[C@@H](O)[C@H](Oc2ccc3c(O)c(NC(=O)c4ccc(O)c(CC=C(C)C)c4)c(=O)oc3c2C)OC1(C)C"
group = "inactive"

[[record]]
smiles_entry = "O=C(NC[C@H](O)CN1CCc2ccccc2C1)c1cc(NC2COC2)ncn1"
group = "inactive"


Outcome? `COC(=O)Nc1nc2ccc(C(=O)c3cccs3)cc2[nH]1`
active

Outcome? `O=C(NNC(=O)c1ccc(CNS(=O)(=O)c2ccc(F)c(Cl)c2)cc1)c1ccccc1`
inactive

Outcome? `CC(C)(C#N)c1cc(Cn2cncn2)cc(C(C)(C)C#N)c1`
inactive

Outcome? `Cc1cc(NC(=O)Nc2ccc(N(C)C)cc2)c2cc(F)cc(F)c2n1`
inactive
